Cited source: the DeepSol protein solubility set

Experimental Protocol: soluble on expression in E. coli; label from the status in PepcDB or PDB records
Property Name: soluble on expression in E. coli

1) GSHMSYADSSRNAVLTNGGRTLRAECRNADGNWVTSELDLDTIIGNNDGHFQWGGQNFTETAEDIRFHPKEGAAEQPILRARLRDCNGEFHDRDVNLNRIQNVNGRLVFQ    soluble
2) MSLAVLDSGGGSALLKMGRQCEVGSQAYDSSTVSSNLQKAETNGPVGLAGTAEQEQQYDVHGNVISAAVYQKFHVYGPEDMVFDGDAGGLTIPGAGAFWGTLFTSDLQRLYKDTVSFQYNALGTYLNINFFDSSGGFLGHIQAGAVSAVVGVGGGSGSWHNWEVAEGHHHHHH    soluble

====

Experimental Protocol: soluble on expression in E. coli; label from the status in PepcDB or PDB records
Property Name: soluble on expression in E. coli

1) MGSDKIHHHHHHMDINADFSERVMVQSADLDWVASPMPGVDRRMLDRIGGEVARATSIVRYAPGSNFSAHTHTGGEEFVVLDGVFQDEHGDYPAGTYVRNPPTTSHTPGSDEGCTIFVKLWQFDMDDRTQFRRDMAAGGDRSVLHEDAFEIVTYHRLAPGAALEDPADGGAELLVLAGSLTEGGDTLITGGWLRLPESSTMHAVAGSEGATVWMKTGHLPHAKPPAVGRTR    not soluble
2) MGSDKIHHHHHHMPEFMKPIHSVILIQNLQARIETCAEMAVNVFQNLNTASLLCPSNTGGWSIVQCLDHLNSYGDYYLPHIQKAFDTHMPGKPAEDVKSSWLGNYFTQLMLPDSGKKYKAFKKHIPKPRLDSAAVVATFIEQQEILLTYLEKAKKYDMNTIRISISIAPFIKLKLGDVFQFLVAHTERHVQQAQRNVPIYE    not soluble

====

Experimental Protocol: soluble on expression in E. coli; label from the status in PepcDB or PDB records
Property Name: soluble on expression in E. coli

1) MSYTKEQLMLAFSYMSYYGITHTGSAKKNAELILKKMKEALKTWKPFQEDDWEVVWGPAVYTMPFTIFNDAMMYVIQKKGAEGEYVIAIRGTNPVSISDWLFNDFMVSAMKKWPYASVEGRILKISESTSYGLKTLQKLKPKSHIPGENKTILQFLNEKIGPEGKAKICVTGHSKGGALSSTLALWLKDIQGVKLSQNIDISTIPFAGPTAGNADFADYFDDCLGDQCTRIANSLDIVPYAWNTNSLKKLKSIYISEQASVKPLLYQRALIRAMIAETKGKKYKQIKAETPPLEGNINPILIEYLVQAAYQHVVGYPELMGMMDDIPLTDIFEDAIAGLLHHHHHH    soluble
2) NLSELTPYILCSICKGYLIDATTITECLHTFCKSCIVRHFYYSNRCPKCNIVVHQTQPL    soluble
3) MGSDKIHHHHHHMGEAIEVAEGALWMRLPLPMKLDHVNVYAFDEGDSWTVVDTGMSSNKTRRIWEQLMAGPLGGKPVRRVVVTHHHPDHIGNAGWFQSEHGAELVTTRTAWLFARMLTLDVQESWPEETLAYYRSAGMDPEVYDTRKADRPFNFADTVYPMPLGFTRVQQGDVFRMGGRDWDIHMGNGHAPEHATLWSRDDNLVLTGDQVLSSISPNIGVYATEPEADPLAEWLEACERLAALARPEHLALGGHKLPFTRLPLRMRQLIDNHHGALERLMEFLETPKSAAECFPTLFKRTIGPGEYGLALVEAVAHVNHLYRTGQVTRTRRSDEAWVYQRR    not soluble
4) MGHHHHHHSHMAAEPVEDNCINFVAMKFIDNTLYFIAEDDENLESDYFGKLESKLSVIRNLNNQVLFIDQGNRPLFEDMTDSDCRDNAPRTIFIISMYKDSQPRGMAVTISVKCEKISTLSCENKIISFKEVNPPDNIKDTKSDIIFFQRSVPGHDNKMQFESSSYEGYFLTCEKERDLFKLILKKEDELGDRSIMFTVQNED    soluble
5) MLIDKTIILSVAFFTSSVFGQTSDKDFLKKPHVLPSAEAAYHAVYHELDSVKSGNRDEKVFGQLYVALIEDQFTFGGDLSTWPDSAFQKGDRGCKPFMAANLHNLCNNEYFLVHQDMIKLVKTVFERKNQADPSFDTICLANNGFVVSDDPENHLVYRYKHRIPMTYKATSNDQKCFGTYDTRTDTFTCMRYDASTKKMSPFELQNFLWKENTGTFHLGNGNAEVFCKKPFYTNK    not soluble
6) MGSDKIHHHHHHMQSQELERIARQIRLRDVQAVFEAGAGHVGGEMSAIDIMTALYFRVLRIWPNDPKNPARDRFVLSKGHTACALYVTLAKRGFIPEEEISTFLQPNSRLNGHPNCNKVPGVETNTGPLGHGLPVAVGMATAAKLSGEDYHTYVMTGDGEMQEGSNWEAIMSAAQFKLNNLTLVIDHNRFQQGAAIADTNDVAPLRPKLEAFGWEVTEINGNAMAEVVPALEHRGNRPHCIVAHTNKGHGISFMQDRVDWHHKVPSKEQYEIAVKELSEAL    not soluble
7) MSETKERLCIYADFPYEFAVCAPRTDCPKREQCLRASAYDGVLARGLQKITVINPLIPTSEQGCKAFADNTPVLFAHGITHLYDELPHHAVQSLKHRLLTYFGKTTYYRIYRKERYITIQEQDYIRDSFVRAGFSSDLIRYDAMVYMYELQSAMVKSD    not soluble
8) MAQKISINRGLGLGMAQLGAFARMGMMINVSAMGPQDGHANGGVGEGGIEMSRKSTWRSENDEIKTRKSTAFEPDLDFDMIDFRQPSGSSQYLYGFGFDNNAFGLADGQSDEDSVFM    not soluble
9) MSLELVIGTKRWSSWSLRPWLALKRAGVDFTELEVALRRGEATGDEIGCISPSRLAPALRDGDLVIWDSLAICEYLAERYPDAKLWPDDPVLRALGRSACAEMHSGFQALRGECPMALDEPPRKLDLSEATQKNVRRIVALWTGLLARSHGPFLLGDWSIADAFYTPVATRFRTYDVRLADYGDAGAAQGYSDRLLQTPEFLEWERAAQAGEGHHHHHH    soluble
10) MGSDKIHHHHHHMQNLDALLIFARVAEMTSFTRAAESLGIQKGRVSMVIRKLERDVGVALLHRTTRSVQLTEDGRAFYSRARDLLAEVQELQSMFSGNGTRLRGRLRVDMPTELARSVVVPALPQLMAAHPELELELSSTDRRVDLVQEGFDCVIRLGPITDDTLIARPLGKLRMTNAASPGYLARYGIPHTLDDLRTQGHRMVHYTLTLGARHPGWEYPNGDGYASLPLPSAMQVNSVQTYHAAGLAGIGLIQAGYSALAHHIESGALVEVLPDLRPEPLAASLVVAHRRNLSPRVRAFMDWIEGVLAPYLD    not soluble
11) MGSDKIHHHHHHMSGFLAVKFPVKEASVADQQDFLGRFDAMSSKATATVIAHYSSSFTLASKLLSPKIRRDIEALYAMVRVADEVVDGAAAAAGCAPDAVAEILDNYERQVLLSLSVPFHTDPVIHAFGNTARKCGFEQAHIVAFFDSMRRDLSQTSYDPTQLDEYIYGSAEVIGLMCLKIFLQDSTASPQDRATMEHGARRLGAAFQKVNFLRDLAEDREGLGRSYLPVFTEEMRDEIVTDIREDLDAARLSIPLLPFGARTGVRAATDLYGCLVDNLESASLEDLKNGRIRVPSMKKASLATKAMWKEVFQK    not soluble
12) MPGERFSHSRCHAIAIKELQRRTENRDGTALHILPKSQRKLAIFLINMDSATKRLTDMNARLDAMGLKAERVAGVNGRELQYPIPEFSEISYMLMHGRRTSPPEIGCYLSHVACANKFMTGDADIALILEDDVVFEDDFLDAIDEAVLNGNDWDILRLTTVSNGRKFAFRALSNGRSLAVALTREKGSGAYLVNRRAGKWISKLIPMRLAYDIAFDLEYLSGLKAAFIYPLCATQDADGESQIQNNLRIYRLPRWRYFTVLPYRAYLETSRFLLRGLRFLVAKAKVAMERGKPKAVQAGRLEHHHHHH    soluble

====

Experimental Protocol: soluble on expression in E. coli; label from the status in PepcDB or PDB records
Property Name: soluble on expression in E. coli

1) MAFDKKLLDIVACPVCKGKLEYDKVAQQLICKADKLAYPITDGIPVLLENRALPLTESV    not soluble
2) MSNNKQAWTGQLDLSVFNNGKKSVARDVFFEKALKVMRPVYLNQSDIPTFYIVNVGGGYLDGDRYTMNFNIDSDAKVILTSQGATKIYKTLNDHVEQYQTFNIKNNGYAEYVGDPIIAFENAKFYQHNVFNLESTASLFYTDILTPGYSKSDKRFSYTYMHLLNEIYVDDALVTFDNMLLDPQKQNVDGLGYMEDYTHLGSCYFIHPSVNQKFIEQVYEEIKHFQHKYDCRFGITHLPTHGFSLRILSNKTQVIESIITAVQCYVVKQIFDRDVDFLRKYLEHHHHHH    not soluble
3) MQALILEQQDGKTLASVQHLEESQLPAGDVTVDVHWSSLNYKDALAITGKGKIIRHFPMIPGIDFAGTVHASEDPRFHAGQEVLLTGWGVGENHWGGLAERARVKGDWLVALPAGLSSRNAMIIGTAGFTAMLCVMALEDAGIRPQDGEVVVTGASGGVGSTAVALLHKLGYQVAAVSGRESTHGYLKSLGANRILSRDEFAESRPLEKQLWAGAIDTVGDKVLAKVLAQMNYGGCVAACGLAGGFALPTTVMPFILRNVRLQGVDSVMTPPARRAEAWARLVKDLPESFYAQAATEITLADAPKFADAIINNQVQGRTLVKIK    not soluble
